These data points were gathered from the supplement of paper PMC9938120.

test system: FMOC03 (patient-derived mucinous ovarian cancer cells); assay: drug sensitivity score (DSS3, normalised partial AUC of % inhibition dose-response) (DSS (score)); higher = more sensitive (stronger inhibition of viability); extreme values may be limits of the assay; conditions: 72 h; library: FO5A; assay format: 2D, 384-well, CellTiter-Glo
drug sensitivity score reference
Hey, just send me the number, nothing else.

Here's what some known entries look like.
{"molecule": "Clc1ccc(C(c2ccccc2Cl)C(Cl)Cl)cc1 (stereo not given)", "drug sensitivity score": 0}
{"molecule": "CC(C)[C@H]1C(=O)N[C@@H](CCCNC(=N)N)C(=O)NCC(=O)N[C@@H](CC(=O)O)C(=O)N[C@H](Cc2ccccc2)C(=O)N1C [Cilengitide]", "drug sensitivity score": 0.1}
{"molecule": "CN[C@@H](C)C(=O)N[C@H]1CN(C(=O)CC(C)C)CC[C@H]2CC[C@@H](C(=O)NC(c3ccccc3)c3ccccc3)N2C1=O", "drug sensitivity score": 1.5}
{"molecule": "Cc1cn(-c2cc(NC(=O)c3ccc(C)c(Nc4nccc(-c5cccnc5)n4)c3)cc(C(F)(F)F)c2)cn1", "drug sensitivity score": 3.5}

Consider the record given below.
Query string: Give the value of drug sensitivity score reported for the following: `COc1cc(Br)c(Nc2nc(-c3c(C)nc4ncccn34)cs2)c(Br)c1`
Result string: 4.6

* * *

system: FMOC25_2 (patient-derived low-grade serous ovarian cancer cells); assay: drug sensitivity score (DSS3, normalised partial AUC of % inhibition dose-response) (DSS (score)); higher = more sensitive (stronger inhibition of viability); extreme values may be limits of the assay; settings: 72 h; library: FO5A; assay format: 2D, 384-well, CellTiter-Glo
property: drug sensitivity score
Hey, just send me the number, nothing else.

Here's what some known entries look like.
{"compound": "CCc1cncnc1N1CCN(Cc2nc3ccc(C(F)(F)F)cc3[nH]2)CC1", "property": "drug sensitivity score", "observed": 6.2}
{"compound": "C=CC(=O)N1CCC(Oc2cc3c(Nc4ccc(Cl)c(Cl)c4F)ncnc3cc2OC)CC1", "property": "drug sensitivity score", "observed": 20.3}

Query string: Give the value of drug sensitivity score reported for the following: `CC#CC(=O)N1CCC[C@H]1c1nc(-c2ccc(C(=O)Nc3ccccn3)cc2)c2c(N)nccn12`
Result string: 0

Query string: Give the value of drug sensitivity score reported for the following: CC(O)(CS(=O)(=O)c1ccc(F)cc1)C(=O)Nc1ccc(C#N)c(C(F)(F)F)c1 (configuration not stated) [Bicalutamide]
Result string: 0

Query string: Give the value of drug sensitivity score reported for the following: `COc1cccc2c1c(O)c(C(=O)N(C)c1ccc(C(F)(F)F)cc1)c(=O)n2C`
Result string: 2.5

Query string: Give the value of drug sensitivity score reported for the following: `COc1cc2c(NC3CCN(C(C)C)CC3)nc(C3CCCCC3)nc2cc1OCCCN1CCCC1`
Result string: 6.5

Query string: Give the value of drug sensitivity score reported for the following: CCC1(c2ccc(N)cc2)CCC(=O)NC1=O (configuration not stated) [Aminoglutethimide]
Result string: 0

* * *

drug sensitivity score reference
system: FMOC27 (patient-derived low-grade serous ovarian cancer cells); experiment: drug sensitivity score (DSS3, normalised partial AUC of % inhibition dose-response) (DSS (score)); higher = more sensitive (stronger inhibition of viability); extreme values may be limits of the assay; settings: 72 h; library: FO5A; assay format: 2D, 384-well, CellTiter-Glo
Hey, just send me the number, nothing else.

Here's what some known entries look like.
{"compound": "O[C@H]1CC[C@H](Nc2ncc3nc(Nc4c(F)cc(F)cc4F)n([C@H]4CCOC4)c3n2)CC1", "drug sensitivity score": 0.1}
{"compound": "CC1(C)NC(=O)N(c2ccc([N+](=O)[O-])c(C(F)(F)F)c2)C1=O [Nilutamide]", "drug sensitivity score": 0.1}

Consider the record given below.
Query string: Give the value of drug sensitivity score reported for the following: O=C1CCC(N2C(=O)c3ccccc3C2=O)C(=O)N1 (stereo not drawn) [Thalidomide]
Result string: 0.1
